target-or-system: Tyrosine-protein phosphatase non-receptor type 11 (Homo sapiens, UniProt Q06124)
Sequence (Q06124 whole entry): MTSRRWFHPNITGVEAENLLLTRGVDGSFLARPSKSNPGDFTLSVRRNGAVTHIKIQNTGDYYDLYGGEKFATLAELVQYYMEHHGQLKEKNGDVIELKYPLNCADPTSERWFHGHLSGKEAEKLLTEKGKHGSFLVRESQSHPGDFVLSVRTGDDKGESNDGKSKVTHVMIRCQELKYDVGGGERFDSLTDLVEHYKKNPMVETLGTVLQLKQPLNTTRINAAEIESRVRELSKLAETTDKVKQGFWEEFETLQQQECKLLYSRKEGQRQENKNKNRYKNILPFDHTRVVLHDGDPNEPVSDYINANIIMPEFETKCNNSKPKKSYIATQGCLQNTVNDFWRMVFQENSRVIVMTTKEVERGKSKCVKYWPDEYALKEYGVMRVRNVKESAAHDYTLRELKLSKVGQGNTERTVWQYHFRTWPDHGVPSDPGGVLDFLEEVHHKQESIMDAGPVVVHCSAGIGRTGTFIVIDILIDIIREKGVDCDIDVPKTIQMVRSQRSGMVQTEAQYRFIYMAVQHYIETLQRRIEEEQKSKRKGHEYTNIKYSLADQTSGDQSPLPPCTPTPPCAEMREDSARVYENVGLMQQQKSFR
test-details: Inhibitory potency against Tyrosine phosphatase SHP2
endpoint-label: Ki

Challenge: Read the entry COC(=O)c1c(O)cccc1OCCCCNC(=O)C(Cc1ccc(OC(C(=O)O)C(=O)O)cc1)NC(=O)OC(C)(C)C (stereo unspecified) and write its reported Ki.
Response given: > 30 µM

* * *

target-or-system: M-phase inducer phosphatase 3 (Homo sapiens)
Sequence (P30307 whole entry): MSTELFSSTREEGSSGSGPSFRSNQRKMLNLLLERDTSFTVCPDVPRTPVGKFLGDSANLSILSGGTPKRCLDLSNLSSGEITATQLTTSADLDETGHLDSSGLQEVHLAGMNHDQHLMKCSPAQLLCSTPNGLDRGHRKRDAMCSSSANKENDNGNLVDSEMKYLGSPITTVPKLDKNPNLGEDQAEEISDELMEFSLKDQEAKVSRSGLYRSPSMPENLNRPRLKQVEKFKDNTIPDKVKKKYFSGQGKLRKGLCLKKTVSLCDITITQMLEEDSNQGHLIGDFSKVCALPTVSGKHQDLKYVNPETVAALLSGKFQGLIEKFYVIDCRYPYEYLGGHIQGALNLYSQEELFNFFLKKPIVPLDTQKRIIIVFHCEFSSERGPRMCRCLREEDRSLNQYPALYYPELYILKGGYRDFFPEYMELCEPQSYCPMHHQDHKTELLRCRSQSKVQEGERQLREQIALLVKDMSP
endpoint-label: Ki

>>> observed_value("CCC(CN(C(=O)C(=O)O)c1ccc(C[C@H](NC(=O)OC(C)(C)C)C(=O)NCCCCOc2cccc(O)c2C(=O)OC)cc1)C(=O)O (some centres not stated)")
"> 30 µM"

Shifting focus to the compound that follows.
Challenge: Please tell me the measured Ki for COC(=O)c1c(O)cccc1OCCCCNC(=O)C(Cc1ccc(OC(C(=O)O)C(=O)O)cc1)NC(=O)OC(C)(C)C (configuration not stated) ; system: M-phase inducer phosphatase 3 (Homo sapiens).
Response given: > 30 µM

Reference for the values: ChEMBL document CHEMBL1145874
